# Experimental system: recombinant human DPPI (Cathepsin C) (Homo sapiens (Human), UniProt P53634)
# Sequence (P53634 231-394): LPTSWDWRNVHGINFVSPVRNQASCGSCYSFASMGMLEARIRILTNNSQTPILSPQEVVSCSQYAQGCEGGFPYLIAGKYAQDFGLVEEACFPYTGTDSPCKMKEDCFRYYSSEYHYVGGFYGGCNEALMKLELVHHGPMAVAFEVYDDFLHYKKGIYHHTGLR
# Sequence (P53634 395-463): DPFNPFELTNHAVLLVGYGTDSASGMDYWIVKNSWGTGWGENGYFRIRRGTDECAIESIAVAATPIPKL
# Sequence (P53634 25-134): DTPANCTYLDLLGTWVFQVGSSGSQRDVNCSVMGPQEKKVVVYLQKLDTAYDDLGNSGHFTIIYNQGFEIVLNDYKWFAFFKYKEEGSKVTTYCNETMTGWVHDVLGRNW
# Assay summary: Inhibition of human DPPI (Cathepsin C)
# Measurement setup: substrate Gly-Arg-AMC 50 μM, 30 min, room temperature
pIC50: −log10 of the molar value.
Measured quantity: pIC50

CS(=O)(=O)c1ccc(-c2ccc(C[C@@H](C#N)NC(=O)[C@H]3NC4CCC3CC4)cc2)cc1 :: 6.96
CN1Cc2cc(-c3ccc(C[C@@H](C#N)NC(=O)[C@H]4NC5CCC4CC5)c(F)c3)ccc2S1(=O)=O :: 7.13
CS(=O)(=O)Nc1cccc(-c2ccc(C[C@@H](C#N)NC(=O)[C@H]3NC4CCC3CC4)cc2)c1 :: 7.01
